Molecular target: T1, recombinant Bacteroides fragilis toxin 1 (BFT1), full length without signal peptide (Bacteroides fragilis (enterotoxigenic), …)
T1 construct: B. fragilis toxin subtype 1 (BFT1, fragilysin), zinc-dependent metallopeptidase of enterotoxigenic Bacteroides fragilis; prodomain plus catalytic domain, without the signal peptide; also called B. fragilis toxin; source: E. coli Origami-2 (DE3), purified (Ni-NTA, SEC on Superdex 75)
T1 chain: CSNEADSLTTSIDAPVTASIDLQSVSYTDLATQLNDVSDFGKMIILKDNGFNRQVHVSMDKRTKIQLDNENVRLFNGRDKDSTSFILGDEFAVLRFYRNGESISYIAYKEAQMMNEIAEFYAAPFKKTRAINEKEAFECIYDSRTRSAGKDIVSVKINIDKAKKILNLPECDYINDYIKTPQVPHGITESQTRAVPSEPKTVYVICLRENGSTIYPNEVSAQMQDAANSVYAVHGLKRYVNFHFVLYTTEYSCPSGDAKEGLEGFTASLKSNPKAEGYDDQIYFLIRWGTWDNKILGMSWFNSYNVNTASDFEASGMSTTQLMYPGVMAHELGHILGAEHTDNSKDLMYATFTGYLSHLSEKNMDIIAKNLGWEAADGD
Assay: ITC; Microcal ITC 200, 25°C; 20 mM Tris pH 8.0, 150 mM NaCl, 5% glycerol; nanobody (20 μM) injected into BFT solution (200 μM); one binding site mode
Conditions: both partners purified
assay.readout: Kd (nM)
Field: numeric (nM). Do not append units.

Known Kd results, listed for orientation:
- binder: "Nb2.14 (VHH, from round 2 of bio-panning; source: E. coli WK6 periplasm, purified (Ni-NTA, SEC on Superdex 75)) VHH: QVQLQESGGGFVQTGGSLRLSCERSGTTFDSFAMGWFRQSPGKEREKVATINWSGESTSYTDSVKGRFTISRDNAKNTVYLQMNNLQPEDTAIYYCAQIAGTHYSGTPQYWGQGTQVTVSS"
  Kd (nM): 0.36
- binder: "Nb3.40 (VHH, from round 3 of bio-panning; source: E. coli WK6 periplasm, purified (Ni-NTA, SEC on Superdex 75)) VHH: QVQLQESGGGFVQTGGSLRLSCERSGTTFDSFAMGWFRQSPGKEREKVATINWSGESTSYTDSVKGRFTISRDNAKNTVYLQMNNLQPEDTAIYYCAQIAGTYYSGTPQYWGQGTQVTVSS"
  Kd (nM): 2.58
- binder: "Nb2.55 (VHH, from round 2 of bio-panning; source: E. coli WK6 periplasm, purified (Ni-NTA, SEC on Superdex 75)) VHH: QVQLQESGGGLVQAGGSLRLSCVRSGHTFDAFAMGWFRQAPGKERESVATINWSGDRTYYADSAKGRFTISRDNAKNTVYLQMNSLKPEDTAVYYCAQMDGTYYSGTPSYWGQGTQVTVSS"
  Kd (nM): 10.6

The record that follows has no Kd shown yet.
Q: Quick one: Kd for Nb3.17 (VHH, from round 3 of bio-panning; source: E. coli WK6 periplasm, purified (Ni-NTA, SEC on Superdex 75)) VHH: QVQLQESGGGLVQAGDSLRLSCAASGGSFDMFAMGWFRQAPGKERERVATISWSGDRTVYADSVKGRFTISRDNTKKMLYLQMNNLKPEDTAVYYCAQIEGTHYSGSPSDHWGQGTQVTVSS ?
Ans: 0.66
